Test system: Staphylococcus aureus
Assay: Antibacterial activity against Staphylococcus aureus ATCC 27154
Assay type: functional
recorded.endpoint: MIC

CC1CC(O)CCCCCc2cc(O)cc(O)c2C(=O)O1 (configuration not stated) | 100 µg/mL
CC1CCCCCCCc2cc(O)cc(O)c2C(=O)O1 (configuration not stated) | 6.25 µg/mL
COc1cc(OC(C)=O)cc2c1C(=O)OC(C)CCCCCCC2 (configuration not stated) | > 100 µg/mL
COc1c(Br)c(O)c(Br)c2c1C(=O)OC(C)CCCCCCC2 (configuration not stated) | > 100 µg/mL
COc1cc(O)cc2c1C(=O)O[C@@H](C)CCCCCCC2 | 25 µg/mL
CC1CCC(=O)CCCCc2cc(O)cc(O)c2C(=O)O1 (configuration not stated) | > 100 µg/mL

In the following, a different compound is considered.
Find the measured MIC of CC1(C)S[C@@H]2[C@H](NC(=O)[C@H](N)c3ccccc3)C(=O)N2[C@H]1C(=O)O and report it. > 100 µg/mL
